target: human recombinant mGluR5 (Homo sapiens)
Sequence (P41594 21-1212): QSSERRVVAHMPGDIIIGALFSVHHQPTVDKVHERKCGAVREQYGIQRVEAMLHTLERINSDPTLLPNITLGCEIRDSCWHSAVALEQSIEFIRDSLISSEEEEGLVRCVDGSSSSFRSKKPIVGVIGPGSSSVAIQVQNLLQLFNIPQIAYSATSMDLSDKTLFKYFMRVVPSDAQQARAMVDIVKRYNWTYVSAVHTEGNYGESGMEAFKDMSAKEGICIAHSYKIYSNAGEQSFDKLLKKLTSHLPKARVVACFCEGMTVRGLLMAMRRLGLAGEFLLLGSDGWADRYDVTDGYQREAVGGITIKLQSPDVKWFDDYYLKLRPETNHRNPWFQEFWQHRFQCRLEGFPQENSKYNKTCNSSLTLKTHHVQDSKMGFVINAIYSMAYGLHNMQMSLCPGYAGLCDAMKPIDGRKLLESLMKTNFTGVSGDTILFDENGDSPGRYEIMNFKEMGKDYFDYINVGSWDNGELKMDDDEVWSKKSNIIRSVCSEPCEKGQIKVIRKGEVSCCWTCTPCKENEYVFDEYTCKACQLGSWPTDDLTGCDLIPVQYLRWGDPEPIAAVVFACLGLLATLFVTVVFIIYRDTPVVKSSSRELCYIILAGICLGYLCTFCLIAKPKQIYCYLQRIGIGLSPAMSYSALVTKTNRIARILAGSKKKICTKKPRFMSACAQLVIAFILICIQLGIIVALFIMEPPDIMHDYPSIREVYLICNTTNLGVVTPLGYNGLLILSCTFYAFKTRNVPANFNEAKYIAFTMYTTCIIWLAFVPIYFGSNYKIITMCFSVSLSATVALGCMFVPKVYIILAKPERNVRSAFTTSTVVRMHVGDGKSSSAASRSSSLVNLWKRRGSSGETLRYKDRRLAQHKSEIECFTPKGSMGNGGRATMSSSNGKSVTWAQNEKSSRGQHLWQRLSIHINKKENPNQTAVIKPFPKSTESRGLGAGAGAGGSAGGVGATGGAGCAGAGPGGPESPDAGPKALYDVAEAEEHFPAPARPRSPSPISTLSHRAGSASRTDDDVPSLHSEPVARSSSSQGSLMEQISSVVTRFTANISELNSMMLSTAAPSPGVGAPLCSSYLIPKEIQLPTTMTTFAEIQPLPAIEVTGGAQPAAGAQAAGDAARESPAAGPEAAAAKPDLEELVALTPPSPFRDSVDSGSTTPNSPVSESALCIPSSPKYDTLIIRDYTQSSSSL
run description: Positive modulation of mGluR5, calcium based FLIPR assay
experimental parameters: EC50 of the modulation; HEK 293 cell line expressing human recombinant mGluR5; peak height of Ca release fluorescence signal after glutamate at approximately 5% basal stimulation
Kindly state EC50 for each of the entries shown.
Answer format: numeric, nM implied, no suffix.

Tell me the measured EC50 of O=C(Cn1cc(-c2cccc(C(F)(F)F)c2)nc1-c1ccccc1)N1CCN(c2ncccn2)CC1 , please. 183

Tell me the measured EC50 of COc1ccnc(N2CCN(C(=O)Cn3cc(-c4ccc(F)c(C)c4)nc3C3CCCCC3)CC2)c1 , please. 737

Tell me the measured EC50 of O=C(Cn1cc(-c2ccc(F)cc2)nc1-c1ccccc1)N1CCN(c2ccccn2)CC1 , please. 542

Tell me the measured EC50 of COc1cc(N2CCN(C(=O)Cn3cc(-c4ccc(F)cc4)nc3-c3ccc(F)cc3)CC2)ncn1 , please. 238
